Target: BRG-1 (Homo sapiens, UniProt P51532)
Sequence (P51532 whole entry): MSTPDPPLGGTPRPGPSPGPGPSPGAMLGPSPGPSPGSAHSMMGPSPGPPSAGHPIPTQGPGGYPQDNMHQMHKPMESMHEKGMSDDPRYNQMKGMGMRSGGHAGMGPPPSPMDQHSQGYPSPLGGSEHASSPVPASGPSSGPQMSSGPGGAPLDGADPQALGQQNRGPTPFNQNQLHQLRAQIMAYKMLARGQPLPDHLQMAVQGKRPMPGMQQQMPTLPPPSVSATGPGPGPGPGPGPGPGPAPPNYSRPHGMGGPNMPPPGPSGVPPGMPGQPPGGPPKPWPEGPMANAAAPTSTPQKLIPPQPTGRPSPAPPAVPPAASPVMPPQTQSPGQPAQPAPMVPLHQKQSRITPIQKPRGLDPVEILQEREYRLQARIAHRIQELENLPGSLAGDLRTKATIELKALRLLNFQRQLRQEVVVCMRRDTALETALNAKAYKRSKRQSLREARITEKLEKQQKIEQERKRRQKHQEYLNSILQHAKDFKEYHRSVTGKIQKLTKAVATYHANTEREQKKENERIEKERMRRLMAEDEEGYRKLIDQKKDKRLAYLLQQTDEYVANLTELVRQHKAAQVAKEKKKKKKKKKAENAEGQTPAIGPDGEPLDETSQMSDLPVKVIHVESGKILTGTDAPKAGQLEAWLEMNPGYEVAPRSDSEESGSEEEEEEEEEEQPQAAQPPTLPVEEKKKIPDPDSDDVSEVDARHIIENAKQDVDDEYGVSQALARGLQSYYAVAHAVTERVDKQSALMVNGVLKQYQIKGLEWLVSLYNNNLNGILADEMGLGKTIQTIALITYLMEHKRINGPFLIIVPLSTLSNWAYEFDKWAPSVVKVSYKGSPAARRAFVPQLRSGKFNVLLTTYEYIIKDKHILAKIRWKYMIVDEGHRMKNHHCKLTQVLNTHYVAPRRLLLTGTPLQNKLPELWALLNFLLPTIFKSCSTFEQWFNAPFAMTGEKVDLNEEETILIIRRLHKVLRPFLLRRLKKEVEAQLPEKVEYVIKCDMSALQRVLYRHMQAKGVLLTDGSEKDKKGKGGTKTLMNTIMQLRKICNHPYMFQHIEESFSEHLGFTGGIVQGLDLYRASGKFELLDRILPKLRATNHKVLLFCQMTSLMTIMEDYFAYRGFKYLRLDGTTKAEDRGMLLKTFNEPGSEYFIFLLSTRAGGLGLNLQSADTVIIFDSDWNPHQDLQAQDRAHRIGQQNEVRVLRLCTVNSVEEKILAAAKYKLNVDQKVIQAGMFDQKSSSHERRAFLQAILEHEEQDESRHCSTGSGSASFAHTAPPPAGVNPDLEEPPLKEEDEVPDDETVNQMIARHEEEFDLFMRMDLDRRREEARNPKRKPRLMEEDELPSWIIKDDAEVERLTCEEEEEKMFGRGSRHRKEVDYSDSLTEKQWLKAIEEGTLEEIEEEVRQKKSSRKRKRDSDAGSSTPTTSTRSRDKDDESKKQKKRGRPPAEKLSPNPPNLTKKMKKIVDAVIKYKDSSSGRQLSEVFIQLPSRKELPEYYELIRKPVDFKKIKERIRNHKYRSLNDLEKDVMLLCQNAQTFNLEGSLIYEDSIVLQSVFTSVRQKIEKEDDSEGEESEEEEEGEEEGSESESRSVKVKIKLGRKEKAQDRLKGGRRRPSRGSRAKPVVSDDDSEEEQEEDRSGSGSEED
Assay: ATPase catalytic activity assay of BRG-1 (ADP-Glo)
Type: biochemical
Details: ATPase catalytic activity, ADP-Glo; read-out: BRG1 IC50 (μM)*
Parameter IC50: see the listing below.

According to the records, this compound C[C@@H]1CN(c2cccc(-c3csc(NC(=O)CNC(=O)c4cccc(C(C)(C)C)c4)n3)c2)C[C@H](C)O1 [Compound 217] displays IC50 of 0.1 to 1 µM

Consider Cn1ccc2ccc(-c3csc(NC(=O)CNC(=O)c4ccc5c(c4)[C@](C)(CO)CC5)n3)cc2c1=O [Compound 177] . Its measured IC50 is 0.1 to 1 µM

So, C[C@@H]1CN(c2cccc(-c3csc(NC(=O)CNC(=O)c4ccc5c(c4)C4(CCCC4=O)CC5)n3)c2)C[C@H](C)O1 (stereo partly shown) [Compound 195] ? Its IC50 was 1 to 5 µM

---

Known BRM Max % Inhibition of a selection of molecules
Biological target: BRM (Homo sapiens)
Test: ATPase catalytic activity assay of BRM (ADP-Glo)
Assay type: biochemical

Reported BRM Max % Inhibition of Cc1cc(-c2cccc(-c3csc(NC(=O)CNC(=O)c4ccc(C)c(C(C)(C)CN)c4)n3)n2)ncn1 : >95%

Lab note: Cc1cc(-c2cccc(-c3csc(NC(=O)CNC(=O)c4cccc(S(=O)(=O)C(C)C)c4)n3)c2)cc(C)n1 gave BRM Max % Inhibition of >95%

Short answer for C[C@@H]1CN(c2cccc(-c3csc(NC(=O)CNC(=O)c4cccc(C5(C(F)F)CCOC5)c4)n3)c2)C[C@H](C)O1 (stereo partly drawn) : BRM Max % Inhibition was >95%

// recorded BRM Max % Inhibition for CN1CCOc2ccc(-c3csc(NC(=O)CNC(=O)c4ccc5c(c4)[C@@](C)(CO)CC5)n3)cc21 : >80%

---

Below is a list of entries, each paired with its recorded Emax value.
Biological target: BRG-1 (Homo sapiens)
Experiment: ATPase catalytic activity assay of BRG-1 (ADP-Glo)
Assay type: biochemical
Details: ATPase catalytic activity, ADP-Glo; read-out: BRG1 Max % Inhibition

Examples with their reported Emax follow.
>>> result("C[C@@]1(C#N)COCc2ccc(C(=O)NCC(=O)Nc3nc(-c4cccc([C@H]5CC5(F)F)c4)cs3)cc21 [Compound 391]")
"> 95%"
>>> result("Cc1cc(-c2cccc(-c3csc(NC(=O)CNC(=O)c4ccc5c(c4)[C@@](C)(CO)CC5)n3)c2)nc(C)n1 [Compound 227]")
"> 95%"
>>> result("CC1(C#N)CCc2ccc(C(=O)NCC(=O)Nc3nc(-c4cccc(-c5ccncc5)c4)cs3)cc21 (centres unmarked) [Compound 76]")
"> 80%"

# Emax of C[C@H](NC(=O)c1cccc(C(C)(C)CN)c1)C(=O)Nc1nc(-c2cccc(-c3ccncc3)c2)cs1 [Compound 65] = > 95%

For this compound ( C[C@@H]1CN(c2cccc(-c3csc(NC(=O)CNC(=O)c4ccc5c(c4)C4(COC5)COC4)n3)n2)C[C@H](C)O1 [Compound 300] ), measured Emax is > 95%

Emax in this record for CC(C)S(=O)(=O)c1cccc(C(=O)NCC(=O)Nc2nc(-c3cccc(N4CCOCC4)c3)cs2)c1 [Compound 126] : > 60%

Please fill in: Emax reported for C[C@@]1(C#N)COCc2ccc(C(=O)NCC(=O)Nc3nc(-c4cccc([C@@]56CCOC[C@@H]5C6)c4)cs3)cc21 [Compound 294] = > 95%

// sample C[C@@H]1CN(c2cccc(-c3csc(NC(=O)CNC(=O)c4ccc5c(c4)[C@](F)(C#N)COC5)n3)n2)C[C@H](C)O1 (single isomer, unassigned) [Compound 298] , its Emax was > 95%

For reference, reported Emax for C[C@@H]1CN(c2cccc(-c3csc(NC(=O)CNC(=O)c4cccc([C@]5(F)C[C@H](O)C5)c4)n3)c2)C[C@H](C)O1 [Compound 150] stands at > 90%

Lab book: Emax of C[C@@]1(F)COCc2ccc(C(=O)NCC(=O)Nc3nc(-c4cccc(N5CCC5)c4)cs3)cc21 [Compound 332] noted as > 95%

For reference, reported Emax for Cc1cc(-c2cccc(-c3csc(NC(=O)CNC(=O)c4ccc(C)c(S(=O)(=O)C(C)C)c4)n3)n2)ncn1 [Compound 110] stands at > 80%

The compound C[C@@H]1CN(c2cccc(-c3csc(NC(=O)CNC(=O)c4cccc([C@]5(C)C[C@H](O)C5)c4)n3)c2)C[C@H](C)O1 [Compound 393] showed Emax equal to > 95%

# Emax (compound: C[C@@]1(C#N)COCc2ccc(C(=O)NCC(=O)Nc3nc(-c4cc(F)c5c(c4)OCO5)cs3)cc21 [Compound 339] ) is > 95%

Sample Cc1cc(C(=O)NCC(=O)Nc2nc(-c3cccc(-c4ccncc4)c3)cs2)cc(C(C)(C)CN)c1 [Compound 63] ; Emax observed: > 60%

---

Listed next: entries and their corresponding IC50.
Biological target: BRM (Homo sapiens, UniProt P51531)
Sequence (P51531 whole entry): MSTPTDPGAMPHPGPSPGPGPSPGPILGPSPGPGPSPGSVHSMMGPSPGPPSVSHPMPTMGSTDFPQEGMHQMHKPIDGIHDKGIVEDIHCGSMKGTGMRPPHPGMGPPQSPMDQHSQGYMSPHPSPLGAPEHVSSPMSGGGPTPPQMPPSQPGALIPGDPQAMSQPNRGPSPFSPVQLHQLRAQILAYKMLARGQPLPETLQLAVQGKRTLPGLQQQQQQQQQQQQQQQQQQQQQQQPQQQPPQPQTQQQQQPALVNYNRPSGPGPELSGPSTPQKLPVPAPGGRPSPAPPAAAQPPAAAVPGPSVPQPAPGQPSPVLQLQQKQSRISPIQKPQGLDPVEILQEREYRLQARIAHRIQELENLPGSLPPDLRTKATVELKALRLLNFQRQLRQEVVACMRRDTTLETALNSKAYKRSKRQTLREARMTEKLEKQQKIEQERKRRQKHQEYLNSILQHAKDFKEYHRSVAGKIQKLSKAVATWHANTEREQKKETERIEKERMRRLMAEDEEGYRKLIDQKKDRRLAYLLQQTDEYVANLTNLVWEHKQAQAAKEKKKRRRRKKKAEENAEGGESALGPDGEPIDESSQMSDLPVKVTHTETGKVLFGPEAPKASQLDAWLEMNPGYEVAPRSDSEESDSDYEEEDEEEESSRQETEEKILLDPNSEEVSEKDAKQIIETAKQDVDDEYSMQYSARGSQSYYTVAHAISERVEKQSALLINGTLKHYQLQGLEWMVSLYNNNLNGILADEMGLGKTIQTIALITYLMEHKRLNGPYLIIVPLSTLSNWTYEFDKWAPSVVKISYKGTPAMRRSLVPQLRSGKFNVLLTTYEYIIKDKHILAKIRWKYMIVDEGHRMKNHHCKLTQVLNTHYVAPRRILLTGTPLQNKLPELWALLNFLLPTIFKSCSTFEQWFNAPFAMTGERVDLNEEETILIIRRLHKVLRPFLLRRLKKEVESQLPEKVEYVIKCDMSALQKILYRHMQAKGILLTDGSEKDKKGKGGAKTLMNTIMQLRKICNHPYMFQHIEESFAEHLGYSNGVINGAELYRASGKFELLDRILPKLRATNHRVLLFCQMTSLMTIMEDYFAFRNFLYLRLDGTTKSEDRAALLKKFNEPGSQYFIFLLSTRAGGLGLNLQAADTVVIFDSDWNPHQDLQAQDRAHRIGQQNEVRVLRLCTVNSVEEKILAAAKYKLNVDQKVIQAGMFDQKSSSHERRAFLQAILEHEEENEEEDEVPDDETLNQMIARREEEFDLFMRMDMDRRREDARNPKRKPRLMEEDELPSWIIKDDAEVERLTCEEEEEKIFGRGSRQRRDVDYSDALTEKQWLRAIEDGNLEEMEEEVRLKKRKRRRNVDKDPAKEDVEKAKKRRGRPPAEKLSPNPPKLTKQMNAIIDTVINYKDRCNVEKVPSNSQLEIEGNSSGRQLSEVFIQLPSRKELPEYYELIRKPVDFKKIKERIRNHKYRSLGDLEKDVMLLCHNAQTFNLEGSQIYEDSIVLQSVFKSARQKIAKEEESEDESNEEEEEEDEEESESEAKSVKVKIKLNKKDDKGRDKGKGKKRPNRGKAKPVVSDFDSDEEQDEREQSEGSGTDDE
Test: ATPase catalytic activity assay of BRM (ADP-Glo)
Type: biochemical
Settings: read-out: BRM IC50 (μM)*

Observe how each entry below is paired with its result.
>>> result("COc1cc(-c2cccc(-c3csc(NC(=O)CNC(=O)c4cccc(S(=O)(=O)C(C)C)c4)n3)c2)ccn1")
"0.1 to 1 µM"
>>> result("COC(=O)N1CCCC(c2csc(NC(=O)CNC(=O)c3ccc4c(c3)[C@](C)(F)COC4)n2)C1 (stereo in doubt)")
"< 0.1 µM"
>>> result("CN1CCOc2ccc(-c3csc(NC(=O)CNC(=O)c4ccc5c(c4)[C@@](C)(CO)CC5)n3)cc21")
"0.1 to 1 µM"
>>> result("CN1C(=O)CCc2ccc(-c3csc(NC(=O)CNC(=O)c4ccc5c(c4)[C@@](C)(CO)CC5)n3)cc21")
"1 to 5 µM"
>>> result("Cc1ccc(C(=O)NCC(=O)Nc2nc(-c3cccc(-c4ccn(C)n4)c3)cs2)cc1S(=O)(=O)C(C)C")
"0.1 to 1 µM"

Record C[C@@]1(C#N)COCc2ccc(C(=O)NC3(C(=O)Nc4nc(-c5cccc(C(F)F)c5)cs4)CC3)cc21 , field IC50: 0.1 to 1 µM

# compound CC(C)N1CCOc2ccc(C(=O)NCC(=O)Nc3nc(-c4cccc(N5C[C@@H](C)O[C@@H](C)C5)n4)cs3)cc21 ; its IC50 = 0.1 to 1 µM

---

Target: BRG-1 (Homo sapiens, UniProt P51532)
Assay: ATPase catalytic activity assay of BRG-1 (ADP-Glo)
Assay type: biochemical
Conditions: ATPase catalytic activity, ADP-Glo, 30 nM BRG-1, 400 μM ATP; read-out: BRG1 Max % Inhibition
measured.quantity: Emax

Below, each entry is followed by its recorded Emax result.
>>> result("CC1(C#N)CCOc2ccc(C(=O)NCC(=O)Nc3nc(-c4cccc([C@H]5CC5(F)F)c4)cs3)cc21 (stereo in doubt)")
"> 95%"
>>> result("CC1(C#N)CCOc2ccc(C(=O)NCC(=O)Nc3nc(-c4cccc(-c5ccncc5)c4)cs3)cc21 (stereo in doubt)")
"> 95%"

Please turn your attention to the following entry.
In plain terms, COC[C@H](NC(=O)c1ccnc(C(C)(C)C)c1)C(=O)Nc1nc(-c2cccc(N3C[C@@H](C)O[C@@H](C)C3)c2)cs1 has a documented Emax of > 90%

---

Target: BRG-1 (Homo sapiens, UniProt P51532)
Assay: ATPase catalytic activity assay of BRG-1 (ADP-Glo)
Type: biochemical
Settings: ATPase catalytic activity, ADP-Glo; read-out: BRG1 Max % Inhibition
Catalogue of Emax values

>>> result("CCOC(=O)N1CCCC(c2csc(NC(=O)CNC(=O)c3ccc4c(c3)[C@](C)(F)COC4)n2)C1 (stereo in doubt)")
"> 95%"
>>> result("C[C@@]1(F)COCc2ccc(C(=O)NCC(=O)Nc3nc(-c4ccccc4)cs3)cc21")
"> 95%"
>>> result("C[C@@H]1CN(c2cccc(-c3csc(NC(=O)CNC(=O)c4cccc([C@]5(C)C[C@@H](O)C5)c4)n3)c2)C[C@H](C)O1")
"> 90%"
>>> result("C[C@@]1(F)COCc2ccc(C(=O)NCC(=O)Nc3nc(-c4cccc(C(F)F)c4)cs3)cc21")
"> 95%"
>>> result("Cc1cncc(-c2cccc(-c3csc(NC(=O)CNC(=O)c4ccc5c(c4)[C@](C)(CO)CC5)n3)n2)n1")
"> 40%"
>>> result("CC1(CO)CCc2ccc(C(=O)NCC(=O)Nc3nc(-c4cccc(-c5ccncc5)c4)cs3)cc21 (stereo not shown) [Compound 102]")
"> 80%"

Now for a further molecule.
The molecule Cn1ncc2ccc(-c3csc(NC(=O)CNC(=O)c4ccc5c(c4)[C@](C)(CO)CC5)n3)cc21 showed Emax equal to > 50%

The values you see were collected from patent US12685735B2.
